All figures here come from patent US6476065B2.

# Tested on: P388 murine leukemia cell line
# Method: P388 cytotoxicity (antiproliferative) MTT assay
# Format: cell-based
# Applied Conditions: P388 murine leukemia cells, 48 hours exposure
// assign Criterion met if IC50 falls strictly below 3 nM, else Criterion not met (ties count as Criterion not met)

Below, 3 molecules whose answers are already recorded.
| Molecule | Class Name |
| --- | --- |
| C=C1C[C@](OC)([C@H](O)C(=O)N[C@H]2OCO[C@H]3[C@@H]2O[C@H](CC(/C=C/C/C=C/C=C/C(=O)O)OC)C(C)(C)[C@@H]3OC)O[C@H](C)[C@@H]1C (stereo partly drawn) [2GP111 (Discalamide A), Discalamide A] | Criterion met |
| C=C1C[C@](OC)([C@H](O)C(=O)N[C@H]2OCO[C@H]3[C@@H]2O[C@H](C[C@@H](CO)OC)C(C)(C)[C@@H]3OC)O[C@H](C)[C@@H]1C [Mycalamide B] | Criterion met |
| C=C(CCC(C)C)COC(=O)[C@H](O)C/C=C\C[C@@H]1O[C@@H]2/C=C/C/C=C/C(C)=C\[C@H]3O[C@@H](C/C=C/C=C/C(=O)O[C@H](C2)[C@@]1(C)CO)C[C@H](O)[C@H]3C [Lasonolide A] | Criterion met |

Data request: Given the entry C=C1C[C@](OC)([C@H](O)C(=O)N[C@H]2OCO[C@H]3[C@@H]2O[C@H](C[C@H](O)CCC/C=C/C=C/C=C/C(=O)N[C@@H](CCCNC(=N)N)C(=O)O)C(C)(C)[C@@H]3OC)O[C@H](C)[C@@H]1C [Onnamide A] , would its reported IC50 be below 3 nM?
Data returned: Criterion met

Data request: # check: IC50 < 3 nM for C=C1C[C@](OC)([C@H](O)C(=O)N[C@H]2OCO[C@H]3[C@@H]2O[C@H](C[C@H](O)CO)C(C)(C)[C@@H]3OC)O[C@H](C)[C@@H]1C [Mycalamide A]
Data returned: Criterion not met

Data request: API: query returns whether the molecule falls strictly under 3 nM in IC50. Query: COc1cc2c(cc1O)CCN[C@]21CS[C@@H]2c3c(OC(C)=O)c(C)c4c(c3[C@H](COC1=O)N1[C@@H]2[C@H]2c3c(cc(C)c(OC)c3O)C[C@@H]([C@@H]1O)N2C)OCO4 [Ecteinascidin 743]
Data returned: Criterion met
